test.protocol: chemical genetic growth profiling, strain panel (AID 1159580);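 further: tested at 20 µM; growth read once vehicle control cultures reached saturation at 30 °C; 1 = growth at the plate median or of vehicle wells; lower values mean less growth of the strain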
condition.notes: S. cerevisiae deletion strains, growth OD, locus YLR113W, strain HOG1, hits give low values
The whole screen tested about 5,500 compounds, of which about 2,000 (36%) were called active. Inconclusive results (about 18%) are left out. Some of the results follow.
Please note: normalized growth exactly at 1 is Not fulfilled. Only values below 1 get Fulfilled.

Some solved cases for reference:
Hello, I'm reviewing records and need to know if normalized growth of CCCc1nc(-c2ccccn2)[nH]c(=O)c1CC1CC1 is below 1. Could you check? Fulfilled

Quick one: COc1cccc(NC(=S)NC2CC(C)CC(C)(C)C2)c1 (stereo unspecified) Fulfilled

Quick one: Cc1cc(O)c2c(c1)Cc1cccc(O)c1C2=O Not fulfilled

Further cases:
Hello, I'm reviewing records and need to know if normalized growth of O=C1C(O)=C(O)C(=O)C(O)=C1O is below 1. Could you check? Fulfilled

Quick one: Cc1cn([C@H]2C[C@H](N=[N+]=[N-])[C@@H](CO)O2)c(=O)[nH]c1=O Fulfilled

---

test.protocol: chemical genetic growth profiling, strain panel (AID 1159580)
condition.notes: S. cerevisiae deletion strains, growth OD, locus YER167W, strain BCK2
Screen size: about 5,500 compounds; about 2,000 (36%) were called active. About 18% were inconclusive and are not listed. Cut-off read from the data, not from the text of the source: active = normalized growth mostly below about 0.91 (no sharp cut-off); inconclusive = no clear call, values can overlap the other calls; inactive = mostly above about 0.92. This is one part of the list.
Respond using exactly one of the listed classes: active, inactive

Dear all, I need the recorded test outcome for CC1(C)CC[C@@]2(C(=O)O)C(C1)C1=CCC3[C@@]4(C)CC[C@H](O)C(C)(C)C4CC[C@@]3(C)[C@]1(C)C[C@@H]2O (stereo not given in full) , thank you. inactive

Quick one: Cc1cc(O)c2c(c1)Cc1cccc(O)c1C2=O inactive

Quick one: Fc1ccc(C(c2ccccc2)(c2ccccc2F)n2ccnc2)cc1 (stereo not given) active

Quick one: Nc1ccc(S(=O)(=O)c2ccc(N)cc2)cc1 inactive

---

test.protocol: chemical genetic growth profiling, strain panel (AID 1159580)
condition.notes: S. cerevisiae deletion strains, growth OD, locus YMR277W, strain FCP1, hits give low values
Hit rate of the full screen: of about 5,500 compounds, about 2,000 (36%) were called active. Not shown: some 18% with an inconclusive outcome. Some of the results follow.
Please note: normalized growth exactly at 0.9 is false (0). Only values below 0.9 get true (1).

Some solved cases for reference:
Hello, I'm reviewing records and need to know if normalized growth of O=C(NCCNc1ncc(C(F)(F)F)cc1Cl)C(F)(F)Sc1ccccc1 is below 0.9. Could you check? false (0)

Quick one: O=C(NCC(c1ccccc1)c1c[nH]c2ccccc12)c1ccc(C(F)(F)F)cc1 (stereo unspecified) false (0)

Further cases:
Hello, I'm reviewing records and need to know if normalized growth of O=C(NCCNc1ncc(Cl)cc1C(F)(F)F)C(F)(F)Sc1ccccc1 is below 0.9. Could you check? false (0)

Quick one: Clc1ccc2c(c1)c1ccccc1n2CN1CCOCC1 false (0)

Quick one: Brc1ccc2[nH]c3c(c2c1)CCC3 false (0)

---

Quick reference: normalized growth of the listed items.
test.protocol: chemical genetic growth profiling, strain panel (AID 1159580)
condition.notes: S. cerevisiae deletion strains, growth OD, locus YJL115W, strain asf1, hits give low values
About 2,000 (36%) of roughly 5,500 compounds were called active. Another 18% or so got no clear call; they are omitted. Some of the results follow.
Number, no unit, nothing else.

Which normalized growth is listed for COc1c(-c2coc3cc4c(cc3c2=O)CC(O)C(C)(C)O4)ccc2c1C=CC(C)(C)O2 (stereo not given) ? 0.971

Quick one: COc1c(-c2coc3cc4c(cc3c2=O)CC(OC(C)=O)C(C)(C)O4)ccc2c1C=CC(C)(C)O2 (stereo not given) 1.04

Quick one: CCCCCCCCCCCC[C@H](C(=O)O)[C@@H](C)C(=O)O 0.94

Quick one: CCCCCCCCCCCCCCC(C(=O)O)C(O)(CC(=O)OC)C(=O)O (stereo not given) 0.976

Further cases:
Which normalized growth is listed for O=C1C(O)=C(O)C(=O)C(O)=C1O ? 1

---

test.protocol: chemical genetic growth profiling, strain panel (AID 1159580);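 further: tested at 20 µM; growth read once vehicle control cultures reached saturation at 30 °C; 1 = growth at the plate median or of vehicle wells; lower values mean less growth of the strain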
condition.notes: S. cerevisiae deletion strains, growth OD, locus YJL129C, strain trk1, hits give low values
Among all 5,500 compounds or so, about 2,000 (36%) were called active. Inconclusive results (about 18%) are left out. This is one part of the list.
parameter.measured: normalized growth

In the examples that follow, each entry is paired with its recorded normalized growth.
Which normalized growth is listed for N=C(N)c1ccc(OCCCCCOc2ccc(C(=N)N)cc2)cc1 ? 0.995 (inactive)

Quick one: C[C@]12CCC(=O)C=C1CCC1C2[C@@H](O)C[C@@]2(C)C1CC[C@]2(O)C(=O)CO (stereo not given in full) 0.97 (inactive)

Quick one: CCC(C)C(NC)C(=O)O (stereo not given) 1.05 (inactive)

Quick one: CC(CC(=O)C(O)C(C)(C)O)C1C(=O)CC2(C)C3=CCC4C(C)(C)C(OC5OCC(O)C(O)C5O)CCC45CC35C(O)CC12C (stereo not given) 1.02 (inactive)

Further cases:
Which normalized growth is listed for O=C(Nc1ccc(C(=O)O)c(O)c1)c1ccccc1 ? 0.999 (inactive)

Quick one: CC1(C)CC(O)C2(C)CCC3(C)C(=CCC4C5(C)CCC(O)C(C)(CO)C5CCC43C)C2C1 (stereo not given) 1.04 (inactive)

Quick one: Nc1ccccc1C(=O)CC(N)C(=O)O (stereo not given) 1.03 (inactive)

---

test.protocol: chemical genetic growth profiling, strain panel (AID 1159580);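 further: tested at 20 µM; growth read once vehicle control cultures reached saturation at 30 °C; 1 = growth at the plate median or of vehicle wells; lower values mean less growth of the strain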
condition.notes: S. cerevisiae deletion strains, growth OD, locus YNR030W, strain Alg12
In all, about 5,500 compounds went through this assay and about 2,000 (36%) were called active. About 18% were inconclusive and are not listed. Cut-off read from the data, not from the text of the source: active = normalized growth mostly below about 0.91 (no sharp cut-off); inconclusive = no clear call, values can overlap the other calls; inactive = mostly above about 0.92. Some of the results follow.
Respond using exactly one of the listed classes: YES (active), NO (inactive)

Some solved cases for reference:
Dear all, I need the recorded test outcome for CC12CCC3C4CCC(=O)C=C4CCC3C1CCC2=O (stereo unspecified) , thank you. NO

Quick one: FC(F)(F)c1cccc(CSc2n[nH]c(=S)s2)c1 YES

Further cases:
Dear all, I need the recorded test outcome for COc1ccc(NC(=O)C(C)c2ccc(CC(C)C)cc2)cc1 (stereo unspecified) , thank you. YES

Quick one: CC(=O)Nc1c(C)c(C)c(C)c(C)c1NC(C)=O NO

Quick one: S=C(NCc1cccnc1)Nc1ccccc1Cl NO

Quick one: COC(=O)C1Cc2c([nH]c3ccccc23)C2(CCN(C)CC2)N1 (stereo unspecified) NO

---

test.protocol: chemical genetic growth profiling, strain panel (AID 1159580);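 further: tested at 20 µM; growth read once vehicle control cultures reached saturation at 30 °C; 1 = growth at the plate median or of vehicle wells; lower values mean less growth of the strain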
condition.notes: S. cerevisiae deletion strains, growth OD, locus YLR330W, strain CHS5
The whole screen tested about 5,500 compounds, of which about 2,000 (36%) were called active. Inconclusive results (about 18%) are left out. Cut-off read from the data, not from the text of the source: active = normalized growth mostly below about 0.91 (no sharp cut-off); inconclusive = no clear call, values can overlap the other calls; inactive = mostly above about 0.92. The list shows a part of the results.
Respond using exactly one of the listed classes: active, inactive

Some solved cases for reference:
Dear all, I need the recorded test outcome for OC(CCN1CCCCC1)(c1ccccc1)C1CCCCC1 (centres undefined) , thank you. inactive

Quick one: OC(CCN1CCCC1)(c1ccccc1)C1CCCCC1 (centres undefined) inactive

Quick one: CC(C)(Oc1ccc(CCNC(=O)c2ccc(Cl)cc2)cc1)C(=O)O inactive

Quick one: C[C@@H]1CC[C@]2(C(=O)O)CC[C@]3(C)C(=CCC4[C@@]5(C)CC[C@H](O)C(C)(C)C5CC[C@]43C)C2[C@H]1C (some centres undefined) inactive

Further cases:
Dear all, I need the recorded test outcome for CC(=O)OC1CC(OC(C)=O)C2(C)C(CC(OC(C)=O)C3(C)C4=CC(=O)OC(=O)C4(C)CCC32)C1(C)C (centres undefined) , thank you. inactive

Quick one: C/C=C(/C)C(=O)O[C@@H]1[C@H](OC(C)=O)[C@@]2(CO)C(CC1(C)C)C1=CCC3[C@@]4(C)CC[C@H](O[C@@H]5O[C@H](C(=O)O)[C@@H](O[C@@H]6O[C@H](CO)[C@@H](O)[C@H](O)[C@H]6O)[C@H](O)[C@H]5O[C@@H]5O[C@H](CO)[C@@H](O)[C@H](O)[C@H]5O)[C@](C)(CO)C4CC[C@@]3(C)[C@]1(C)C[C@H]2O (some centres undefined) inactive

Quick one: NNC(=O)c1ccncc1 inactive

Quick one: C[C@@H]1OC(O[C@H]2C(O[C@H]3CC[C@@]4(C)C(CC[C@]5(C)C4CC=C4C6CC(C)(C)CC[C@]6(C(=O)O)CC[C@]45C)[C@]3(C)CO)OC[C@H](O)[C@@H]2O)[C@H](O)[C@H](O)[C@H]1O (some centres undefined) active

Quick one: C[C@@H]1OC(O[C@H]2[C@H](OC(=O)[C@]34CCC(C)(C)CC3C3=CCC5[C@@]6(C)CC[C@H](OC7O[C@@H](C)[C@H](O[C@@H]8OC[C@@H](O)[C@H](O)[C@H]8O)[C@@H](O)[C@H]7O)C(C)(C)C6CC[C@@]5(C)[C@]3(C)CC4O)OC[C@H](O)[C@H]2O)[C@H](O)[C@H](O)[C@H]1O[C@@H]1O[C@H](CO)[C@@H](O)[C@H](O)[C@H]1O (some centres undefined) inactive
